Provenance of the data: ChEMBL document CHEMBL2218924

# residual activity values compiled below
Target: G protein-coupled receptor kinase 5 (Homo sapiens) (UniProt P34947)
Sequence (P34947 whole entry, looked up): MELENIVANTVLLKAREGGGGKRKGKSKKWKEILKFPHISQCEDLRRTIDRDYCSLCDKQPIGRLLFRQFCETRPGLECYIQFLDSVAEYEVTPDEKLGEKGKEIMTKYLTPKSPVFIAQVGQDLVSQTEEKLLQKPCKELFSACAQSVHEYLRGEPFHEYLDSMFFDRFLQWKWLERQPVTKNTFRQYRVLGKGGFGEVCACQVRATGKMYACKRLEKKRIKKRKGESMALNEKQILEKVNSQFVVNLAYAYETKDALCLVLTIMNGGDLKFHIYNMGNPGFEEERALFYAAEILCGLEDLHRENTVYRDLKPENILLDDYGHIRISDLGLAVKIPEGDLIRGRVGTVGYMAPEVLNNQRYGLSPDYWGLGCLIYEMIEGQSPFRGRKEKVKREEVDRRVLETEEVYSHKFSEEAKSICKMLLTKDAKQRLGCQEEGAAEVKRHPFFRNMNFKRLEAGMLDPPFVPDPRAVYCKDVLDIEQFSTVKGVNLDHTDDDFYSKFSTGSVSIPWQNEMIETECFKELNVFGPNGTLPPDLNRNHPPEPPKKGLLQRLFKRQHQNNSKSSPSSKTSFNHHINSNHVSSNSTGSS
Settings: at 10 µM
ASSAY ENDPOINT: residual activity (%)

| MOL | VAL |
| --- | --- |
| O=C(Nc1nc2ccccc2n1CCN1CCOCC1)c1cccc([N+](=O)[O-])c1 | 85 |
| O=C(CCCc1ccc(-c2ccccc2F)cc1)Nc1ccc(O)cc1 | 91 |
| O=C1NC(=O)C(c2cn(CCCn3ccnc3)c3ccccc23)=C1Nc1ccccc1 | 30 |
| Cn1sc(=O)n(Cc2ccccc2)c1=O | 85 |
| CCCCc1c(-c2ccc(O)cc2)[nH]c2nccnc12 | 90 |
| O=c1cc(N2CCOCC2)oc2c1ccc1ccccc12 | 96 |

###

# residual activity values compiled below
Target: Mitogen-activated protein kinase 10 (Homo sapiens) (UniProt P53779)
Sequence (P53779 whole entry): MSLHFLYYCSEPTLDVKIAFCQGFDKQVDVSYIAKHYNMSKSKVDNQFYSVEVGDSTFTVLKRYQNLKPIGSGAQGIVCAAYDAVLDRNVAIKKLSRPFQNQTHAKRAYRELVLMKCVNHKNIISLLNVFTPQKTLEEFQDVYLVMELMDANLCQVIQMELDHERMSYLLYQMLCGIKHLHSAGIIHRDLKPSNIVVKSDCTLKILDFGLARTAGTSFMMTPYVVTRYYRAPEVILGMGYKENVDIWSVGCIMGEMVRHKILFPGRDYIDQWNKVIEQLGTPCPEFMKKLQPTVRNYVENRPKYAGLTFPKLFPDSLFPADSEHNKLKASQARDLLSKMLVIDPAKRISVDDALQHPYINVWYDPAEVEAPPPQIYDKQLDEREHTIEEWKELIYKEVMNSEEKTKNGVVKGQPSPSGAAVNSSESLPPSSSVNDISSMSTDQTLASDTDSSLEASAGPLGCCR
Conditions: at 10 µM
ASSAY ENDPOINT: residual activity (%)

| COMPOUND | TARGET UNDER TEST | ASSAY ENDPOINT | VAL |
| --- | --- | --- | --- |
| CCN(CC)CCNC(=O)c1c(C)[nH]c(/C=C2\C(=O)Nc3ccc(Cl)cc32)c1C | Mitogen-activated protein kinase 10 (Homo sapiens) (UniProt P53779) | residual activity | 75 |
| COc1cc2ncnc(Nc3cccc(Cl)c3)c2cc1OC | Mitogen-activated protein kinase 10 (Homo sapiens) (UniProt P53779) | residual activity | 50 |
| CN(C)S(=O)(=O)c1ccc2c(c1)/C(=C/c1cc3c([nH]1)CCCC3)C(=O)N2 | Mitogen-activated protein kinase 10 (Homo sapiens) (UniProt P53779) | residual activity | 81 |
| NC(=O)Nc1sc(-c2ccc(F)cc2)cc1C(N)=O | Mitogen-activated protein kinase 10 (Homo sapiens) (UniProt P53779) | residual activity | 33 |
| N#C/C(=C\c1ccc(O)c(O)c1)C(=O)NCc1ccccc1 | Mitogen-activated protein kinase 10 (Homo sapiens) (UniProt P53779) | residual activity | 72 |
| CSc1nc(-c2ccc(F)cc2)c(-c2ccnc(NC(C)c3ccccc3)c2)[nH]1 (stereo unspecified) | Mitogen-activated protein kinase 10 (Homo sapiens) (UniProt P53779) | residual activity | -3 |
| CC(C)c1nn(-c2c(Cl)cccc2Cl)c2nc(Cc3ccc(OCCO)cc3)[nH]c(=O)c12 | Mitogen-activated protein kinase 10 (Homo sapiens) (UniProt P53779) | residual activity | 29 |
| c1ccc(-c2cnc(Nc3ccc(OCCN4CCCC4)cc3)s2)cc1 | Mitogen-activated protein kinase 10 (Homo sapiens) (UniProt P53779) | residual activity | 36 |
| N#Cc1c(NC(=O)c2cccc3ccccc23)sc2c1CCCC2 | Mitogen-activated protein kinase 10 (Homo sapiens) (UniProt P53779) | residual activity | 0 |
| Nc1ncnc2[nH]nc(Nc3ccc(F)cc3)c12 | Mitogen-activated protein kinase 10 (Homo sapiens) (UniProt P53779) | residual activity | 92 |
| O=C(CCCc1ccc(-c2ccccc2F)cc1)Nc1ccc(O)cc1 | Mitogen-activated protein kinase 10 (Homo sapiens) (UniProt P53779) | residual activity | 94 |

###

Biological target: SRSF protein kinase 1 (Homo sapiens)
Details: at 1 µM
ASSAY ENDPOINT: residual activity (%)

| MOLECULE | VALUE UNITS | VAL |
| --- | --- | --- |
| O=C1Cc2c([nH]c3ccc([N+](=O)[O-])cc23)-c2ccccc2N1 | % | 105 |
| Cn1sc(=O)n(Cc2ccccc2)c1=O | % | 83 |
| Cc1cc(C)c(/C=C2\C(=O)Nc3ccccc32)[nH]1 | % | 104 |
| COc1cc2nccc(Oc3ccc(NC(=O)Nc4cc(C)on4)c(Cl)c3)c2cc1OC | % | 98 |
| CSc1nc(-c2ccc(F)cc2)c(-c2ccnc(NC(C)c3ccccc3)c2)[nH]1 (configuration not stated) | % | 94 |
| CC(C)(C)n1nc(Cc2cccc3ccccc23)c2c(N)ncnc21 | % | 103 |
| Nc1ncnc2[nH]nc(Nc3ccc(F)cc3)c12 | % | 95 |
| O=C(c1cc2cc(O)ccc2[nH]1)c1cc2cc(O)ccc2[nH]1 | % | 81 |
| Nc1nc(Nc2ccc(S(N)(=O)=O)cc2)nn1C(=O)c1c(F)cccc1F | % | 56 |
| NC(=O)Nc1sc(-c2ccc(F)cc2)cc1C(N)=O | % | 105 |
| N#C/C(=C\c1ccc(O)c(O)c1)C(=O)NCc1ccccc1 | % | 100 |
| CCCC(=O)Oc1ccc2[nH]c(C(=O)c3cc4ccccc4[nH]3)cc2c1 | % | 104 |
| O=c1cc(N2CCOCC2)oc2c1ccc1ccccc12 | % | 99 |
| COc1cc2nccc(Oc3ccc(NC(=S)NC(=O)c4ccccc4C)cc3)c2cc1OC | % | 102 |
| Nc1ncnc2c1c(-c1ccc(Oc3ccccc3)cc1)cn2C1CCCC1 | % | 104 |
| CN(C)S(=O)(=O)c1ccc2c(c1)/C(=C/c1cc3c([nH]1)CCCC3)C(=O)N2 | % | 20 |
| CCCCc1c(-c2ccc(OC)cc2)[nH]c2nccnc12 | % | 118 |
